The reported numbers originate from patent US20260317344A1.

Recorded measurements of pIC50, one per entry
Target of assay: EGFR (D746-750/C797S) (Homo sapiens, UniProt P00533, C797S/DEL746-750)
Sequence (P00533 with tags, fused parts or gaps DEL746-750/C797S): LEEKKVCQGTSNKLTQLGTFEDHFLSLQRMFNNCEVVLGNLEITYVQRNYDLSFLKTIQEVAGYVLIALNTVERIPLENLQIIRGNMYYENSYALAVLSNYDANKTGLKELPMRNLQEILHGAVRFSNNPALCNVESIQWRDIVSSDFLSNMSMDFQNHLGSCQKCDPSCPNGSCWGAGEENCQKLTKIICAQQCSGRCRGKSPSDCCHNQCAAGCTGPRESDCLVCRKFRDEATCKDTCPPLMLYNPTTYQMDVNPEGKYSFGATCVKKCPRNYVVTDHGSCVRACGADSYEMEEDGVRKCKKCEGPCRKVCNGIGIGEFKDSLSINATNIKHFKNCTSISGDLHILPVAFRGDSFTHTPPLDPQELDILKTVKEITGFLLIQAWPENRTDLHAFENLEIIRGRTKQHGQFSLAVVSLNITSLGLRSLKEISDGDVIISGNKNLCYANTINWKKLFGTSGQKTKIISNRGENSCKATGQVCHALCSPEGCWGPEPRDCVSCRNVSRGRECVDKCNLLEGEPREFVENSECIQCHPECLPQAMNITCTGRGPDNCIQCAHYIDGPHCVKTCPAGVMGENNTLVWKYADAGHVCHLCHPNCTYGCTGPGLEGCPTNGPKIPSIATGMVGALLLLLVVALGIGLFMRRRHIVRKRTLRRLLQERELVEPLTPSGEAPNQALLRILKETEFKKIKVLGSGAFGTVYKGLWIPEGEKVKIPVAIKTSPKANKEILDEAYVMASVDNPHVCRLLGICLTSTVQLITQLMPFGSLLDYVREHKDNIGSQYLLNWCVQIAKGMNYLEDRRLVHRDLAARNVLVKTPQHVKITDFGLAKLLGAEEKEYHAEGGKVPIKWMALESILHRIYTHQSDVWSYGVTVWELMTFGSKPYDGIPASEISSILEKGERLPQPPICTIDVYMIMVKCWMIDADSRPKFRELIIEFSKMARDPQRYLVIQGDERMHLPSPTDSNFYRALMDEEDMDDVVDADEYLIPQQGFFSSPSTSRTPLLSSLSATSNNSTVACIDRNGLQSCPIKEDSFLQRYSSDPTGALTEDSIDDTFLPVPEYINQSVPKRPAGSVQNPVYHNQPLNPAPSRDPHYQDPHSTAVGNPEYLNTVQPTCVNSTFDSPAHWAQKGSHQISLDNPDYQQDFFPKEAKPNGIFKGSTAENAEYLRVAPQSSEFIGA
Assay procedure: HotSpot radiometric kinase assay, inhibition of EGFR 746-750/C797S mutant
Test settings: 33P ATP, room temperature, 120 m
pIC50: −log10 of the molar value.
Property name: pIC50

CCOc1nn([C@@H](C)CO)c2c1/C=C/c1n[nH]c3cnc(cc13)-c1c(C)nn(C)c1OC[C@H]1CCCN1C2
8.79
Cc1nn(C)c2c1-c1cc3c(n[nH]c3cn1)/C=C/c1c(OCC#N)nn(CCO)c1CN(C)[C@H](C)CO2
9.47
CCOc1nn(CCO)c2c1/C=C/c1n[nH]c3cnc(cc13)-c1c(C)nn(C)c1O[C@@H](C)CN(C(C)C)C2
9.43
CCOc1nn(CCO)c2c1/C=C/c1n[nH]c3cnc(cc13)-c1c(C)nn(C)c1O[C@@H](C)CN(C)C2
9.21
CCc1nn(CCO)c2c1/C=C/c1n[nH]c3cnc(cc13)-c1c(C)nn(C)c1O[C@@H](C)CN(CC)C2
8.80
CCOc1nn(CCO)c2c1/C=C/c1n[nH]c3cnc(cc13)-c1c(CC)nn(C)c1O[C@@H](C)CN(CC)C2
8.74
CCN1CCOc2c(c(C)nn2C)-c2cc3c(n[nH]c3cn2)/C=C/c2c(OCC#N)nn([C@@H](C)CO)c2C1
8.98
